Biological target: T1, monomeric hCD86 ECD (papain-digested hCD86-mIg) (human, UniProt P42081 24-243)
T1 construct: also called monomeric hCD86-mIg ligand; monomeric CD86 ECD
T1 chain: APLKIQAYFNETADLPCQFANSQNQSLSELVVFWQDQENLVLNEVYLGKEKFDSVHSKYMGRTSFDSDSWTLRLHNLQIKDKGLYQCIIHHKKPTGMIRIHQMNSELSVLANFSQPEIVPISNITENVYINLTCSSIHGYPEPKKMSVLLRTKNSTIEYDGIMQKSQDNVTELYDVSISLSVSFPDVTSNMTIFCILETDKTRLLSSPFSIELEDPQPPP
Experiment: SPR Biacore, fusion protein captured, monomeric hCD86 ECD in flow
pKd: −log10 of the molar value.
endpoint: pKd

Given item D3-29-IgG2 (Fc fusion) MHVAQPAVVLASSRGIASFVCEYASPGKANEIRVTVLRQADSQVTEVCAMTYMKGDELTFLDDPSCTGTFSGNQVNLTIQGLRAMDTGLYICKVELMYPPPYYLGIGNGTQIYVIDPEPCPDSDERKCCVECPPCPAPPVAGPSVFLFPPKPKDTLMISRTPEVTCVVVDVSHEDPEVQFNWYVDGVEVHNAKTKPREEQFNSTFRVVSVLTVVHQDWLNGKEYKCKVSNKGLPAPIEKTISKTKGQPREPQVYTLPPSREEMTKNQVSLTCLVKGFYPSDIAVEWESNGQPENNYKTTPPMLDSDGSFFLYSKLTVDKSRWQQGNVFSCSVMHEALHNHYTQKSLSLSPG , the value recorded as its pKd is > 6.47

Value source: patent US20110177071A1
